Parameter koff: see the listing below.
ASSAY_SYSTEM: T1, recombinant human TfR (r human TfR: Sino Biological Inc.) (human, UniProt P02786 89-760)
T1 construct: Bought product; also called r human TfR-ECD (Histag); hTfR; not shown: histidine tag attached to the N-terminus
T1 sequence (P02786 89-760): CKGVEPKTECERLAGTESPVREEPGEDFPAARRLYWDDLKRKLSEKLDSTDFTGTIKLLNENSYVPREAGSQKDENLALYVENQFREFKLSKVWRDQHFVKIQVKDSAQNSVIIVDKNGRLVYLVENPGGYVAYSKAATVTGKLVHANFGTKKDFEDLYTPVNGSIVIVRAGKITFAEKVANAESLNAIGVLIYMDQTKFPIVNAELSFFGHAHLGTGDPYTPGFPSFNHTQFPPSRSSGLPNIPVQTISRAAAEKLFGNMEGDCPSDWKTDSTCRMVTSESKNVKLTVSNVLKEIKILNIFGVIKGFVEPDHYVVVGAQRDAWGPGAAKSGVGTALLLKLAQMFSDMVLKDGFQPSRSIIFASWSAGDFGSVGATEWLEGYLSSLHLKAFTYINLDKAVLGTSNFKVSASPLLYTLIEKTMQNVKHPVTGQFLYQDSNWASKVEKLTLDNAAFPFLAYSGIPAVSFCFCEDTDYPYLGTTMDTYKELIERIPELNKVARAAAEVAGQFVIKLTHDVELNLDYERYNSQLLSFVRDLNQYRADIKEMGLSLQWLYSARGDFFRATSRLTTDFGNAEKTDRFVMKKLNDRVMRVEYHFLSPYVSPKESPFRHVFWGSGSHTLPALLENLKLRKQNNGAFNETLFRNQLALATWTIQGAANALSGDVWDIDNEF
PROCEDURE_DETAILS: BLI (Octet RED96), His-tagged TfR ECD loaded on Ni-NTA sensor, antibody as analyte
Value expressed in s⁻¹; do not type the unit.

- anti-hTfR antibody No. 7 (antibody, V domains shown, Mouse hybridoma antibody purified on Protein G; also called mouse anti-hTfR antibody No. 7; product of Clone 7 line) VH: EVQLQESGGALVKPGGSLKVSCEASGITFRNYFMSWVRQTPEKRLEWVATISSAGGYTYYADSVKGRFTISRDNAGNTLYLQMSSLRSEDTAMYFCARQEVPYPYAMDYWGQGTSVIVSS VL: DIVLTQSPVIMSASLGEEITLTCSASSSVNYIHWYQQKSGTSPKVLIYQTSNLASGVPSRFSGSRSGTFYSLKISSVEAEDAADYYCHQWSSYPWTFGGGTKLEIK: 3.03e-05

Next item in the queue.
q: Which measured koff value corresponds to anti-hTfR antibody No. 5 (antibody, V domains shown, Mouse hybridoma antibody purified on Protein G; also called mouse anti-hTfR antibody No. 5; product of Clone 5 line) VH: EVQLQESGPELVKPGASVKMSCKASGYTFTNFVIHWVKQRPGQGLEWIGFFNPHKNGAEYNEKFQVKATLTSDKSSTTAYMELNSLTSEDSAVYYCARSFYYYSMDYWGQGTSVTVSS VL: DIVMTQTPAIMSASPGEKVTMTCSASSSISSIHWYQQKPGTSPKRWIYDTSTLASGVPVRFSGSGSGTSYSLTISSMEAEDAATYYCHQRSSYPTFGGGTKLEIK ?
a: 2.44e-05
